test: Mouse pharmacokinetic (PK) evaluation of drug metabolism to psilocin; details: male, C57Bl/6, mouse, plasma, intravenous, 1 mg/kg, Plasma concentration of administered (parent) compound, 1 mg/kg i.v.; 0.25 h; mean ± SD
readoutType: concentration at 0.25 h (µg/mL)
Hi! Could you send only the number? It should be in µg/mL, unit omitted.

Problem: Recorded concentration at 0.25 h for CN(C)CCc1c[nH]c2cccc(OP(=O)(O)O)c12 [psilocybin, reference compound] , please?
Result: 0.0132

* * *

experiment: Mouse pharmacokinetic (PK) evaluation of drug metabolism to psilocin; conditions: male, C57Bl/6, mouse, plasma, intravenous, 1 mg/kg, Plasma concentration of administered (parent) compound, 1 mg/kg i.v.; 1 h; individual mice
readoutType: concentration at 1 h (ng/mL)
Hi! Could you send only the number? It should be in ng/mL, unit omitted.

Problem: Recorded concentration at 1 h for CN(C)CCc1c[nH]c2cccc(OP(=O)(O)O)c12 [psilocybin, reference compound] , please?
Result: 1.21
